tested on: Echinochloa oryzicola; assay: Herbicidal activity against Echinochloa oryzicola assessed as dose required to cause sufficient herbicidal activity; assay type: functional
# MED listing for each entry below
Numbers only here, please. The scale is g/acre.

Previously resolved entries follow.
compound=O=C(Nc1nc(OC(F)F)cc(OC(F)F)n1)NS(=O)(=O)c1sccc1COCCF obs_value=5
compound="COc1cc(OC)nc(NC(=O)NS(=O)(=O)c2sccc2COCC2CCCO2)n1 (stereo not given)" obs_value=5
compound=CCN(CC)Cc1ccsc1S(=O)(=O)NC(=O)Nc1nc(OC)cc(OC)n1 obs_value=5
compound=COc1cc(OC)nc(NC(=O)NS(=O)(=O)c2sccc2COCC(F)(F)Cl)n1 obs_value=5
compound=COc1cc(OC)nc(NC(=O)NS(=O)(=O)c2sccc2COCC(F)F)n1 obs_value=1.25
compound=COc1cc(OC)nc(NC(=O)NS(=O)(=O)c2sccc2COCC(F)(F)C(F)(F)C(F)(F)F)n1 obs_value=10

Given COc1cc(OCC(F)(F)F)nc(NC(=O)NS(=O)(=O)c2sccc2COCCF)n1 , state its recorded MED.
20

Can you handle COc1nc(NC(=O)NS(=O)(=O)c2sccc2COCCF)nc(OC)n1 next?
5

Can you handle COc1cc(OC)nc(NC(=O)NS(=O)(=O)c2sccc2Cn2cccn2)n1 next?
5
